System: BT-549 breast
experiment_description: NCI tumour cell line growth inhibition, 48 h
measurement_label: GI50

>>> result("COc1cc(C2CC(c3ccc(C)cc3)=NN2C=O)ccc1Oc1ccnc2cc(Cl)ccc12 (centres undefined)")
"3.96 µM"
>>> result("COc1cc(-c2nn(-c3ccc(NC(=O)c4ccc(Cl)c(Cl)c4)cc3)cc2-c2ccncc2)ccc1Cl")
"> 100 µM"
>>> result("COc1ccc(C(=O)/C(Br)=C/C(=O)O)cc1")
"242 µM"

# next compound below
Query: GI50; subject: "C=C1C(=O)O[C@H]2[C@H]1CC/C(Cn1cc(CNC(=O)Cc3cn(C(=O)c4ccc(Cl)cc4)c4ccc(OC)cc34)nn1)=C\CC[C@@]1(C)O[C@@H]21" 1.61 µM
